Field: pIC50. Provide a value for each of the molecules that follow.
Molecular target: mineralocorticoid receptor (Homo sapiens (Human), UniProt P08235)
Sequence (P08235 whole entry): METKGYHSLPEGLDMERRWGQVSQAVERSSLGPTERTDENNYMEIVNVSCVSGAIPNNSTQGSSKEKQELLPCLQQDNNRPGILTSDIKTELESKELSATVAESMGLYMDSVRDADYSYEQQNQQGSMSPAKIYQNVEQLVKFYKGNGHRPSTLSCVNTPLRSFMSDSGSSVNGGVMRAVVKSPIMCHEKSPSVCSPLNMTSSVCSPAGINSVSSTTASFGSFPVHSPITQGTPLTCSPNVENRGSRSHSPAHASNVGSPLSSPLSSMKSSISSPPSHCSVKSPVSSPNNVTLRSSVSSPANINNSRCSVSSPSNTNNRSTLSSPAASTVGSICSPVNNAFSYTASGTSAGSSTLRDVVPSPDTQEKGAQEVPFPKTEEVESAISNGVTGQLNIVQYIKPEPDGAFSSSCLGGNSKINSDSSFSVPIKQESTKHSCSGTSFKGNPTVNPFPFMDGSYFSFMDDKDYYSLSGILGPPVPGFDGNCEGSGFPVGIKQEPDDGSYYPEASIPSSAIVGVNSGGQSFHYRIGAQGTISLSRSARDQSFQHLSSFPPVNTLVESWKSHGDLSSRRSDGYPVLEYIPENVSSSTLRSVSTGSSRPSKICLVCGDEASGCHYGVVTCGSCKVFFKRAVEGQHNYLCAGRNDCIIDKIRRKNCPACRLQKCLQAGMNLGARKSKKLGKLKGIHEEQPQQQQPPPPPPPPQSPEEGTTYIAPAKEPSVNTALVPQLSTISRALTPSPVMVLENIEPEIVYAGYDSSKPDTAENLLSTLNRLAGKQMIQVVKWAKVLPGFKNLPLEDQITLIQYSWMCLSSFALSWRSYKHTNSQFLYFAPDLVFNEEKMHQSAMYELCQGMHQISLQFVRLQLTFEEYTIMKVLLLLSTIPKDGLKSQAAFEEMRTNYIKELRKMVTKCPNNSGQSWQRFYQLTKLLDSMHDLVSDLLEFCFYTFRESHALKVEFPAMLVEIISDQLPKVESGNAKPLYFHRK
Test: Antimineralocorticoid action by transactivation test (MDCK luciferase reporter cells)
Details: in-vitro transactivation, 1 nM aldosterone, read-out: Mineralocorticoid receptor Antagonism IC50
Protocol: 5. Determination of Antimineralocorticoid Action by Means of Transactivation Tests: The antimineralocorticoid activity of the test substances was determined as for the transactivation tests described above. The following modifications were undertaken: In this case reporter cell lines were used (MDCK cells) that express the human mineralocorticoid receptor, and transiently contain a reporter construct that contains luciferase under the control of a steroid hormone-responsive promoter. […]
Numbers only, as −log10 of the molar value.

Completed entries (count: 2):
>  <molecule>
C[C@]12CC[C@H]3[C@@H](CCC4=C(Cl)C(=O)CC[C@@H]43)[C@@H]1CC[C@@]21C=CC(=O)O1

>  <assay_readout>
pIC50

>  <measured_number>
6.15

$$$$
>  <molecule>
CC[C@]12CC[C@H]3[C@@H]([C@H](C)CC4=CC(=O)CC[C@@H]43)[C@@H]1CC[C@@]21C=CC(=O)O1 (stereo in doubt)

>  <assay_readout>
pIC50

>  <measured_number>
7.96

$$$$

Now for another entry.
-- ask Any idea what its pIC50 is? The molecule is C[C@]12CC[C@H]3[C@@H](C=CC4=CC(=O)CC[C@@H]43)[C@@H]1CC[C@@]21C=CC(=O)O1 (stereo in doubt)
-- reply 6.06

====

target: progesterone receptor (Homo sapiens (Human)); details: ratio of the competition factors CF(PR) and CF(MR)
Sequence (P06401 whole entry, species assumed): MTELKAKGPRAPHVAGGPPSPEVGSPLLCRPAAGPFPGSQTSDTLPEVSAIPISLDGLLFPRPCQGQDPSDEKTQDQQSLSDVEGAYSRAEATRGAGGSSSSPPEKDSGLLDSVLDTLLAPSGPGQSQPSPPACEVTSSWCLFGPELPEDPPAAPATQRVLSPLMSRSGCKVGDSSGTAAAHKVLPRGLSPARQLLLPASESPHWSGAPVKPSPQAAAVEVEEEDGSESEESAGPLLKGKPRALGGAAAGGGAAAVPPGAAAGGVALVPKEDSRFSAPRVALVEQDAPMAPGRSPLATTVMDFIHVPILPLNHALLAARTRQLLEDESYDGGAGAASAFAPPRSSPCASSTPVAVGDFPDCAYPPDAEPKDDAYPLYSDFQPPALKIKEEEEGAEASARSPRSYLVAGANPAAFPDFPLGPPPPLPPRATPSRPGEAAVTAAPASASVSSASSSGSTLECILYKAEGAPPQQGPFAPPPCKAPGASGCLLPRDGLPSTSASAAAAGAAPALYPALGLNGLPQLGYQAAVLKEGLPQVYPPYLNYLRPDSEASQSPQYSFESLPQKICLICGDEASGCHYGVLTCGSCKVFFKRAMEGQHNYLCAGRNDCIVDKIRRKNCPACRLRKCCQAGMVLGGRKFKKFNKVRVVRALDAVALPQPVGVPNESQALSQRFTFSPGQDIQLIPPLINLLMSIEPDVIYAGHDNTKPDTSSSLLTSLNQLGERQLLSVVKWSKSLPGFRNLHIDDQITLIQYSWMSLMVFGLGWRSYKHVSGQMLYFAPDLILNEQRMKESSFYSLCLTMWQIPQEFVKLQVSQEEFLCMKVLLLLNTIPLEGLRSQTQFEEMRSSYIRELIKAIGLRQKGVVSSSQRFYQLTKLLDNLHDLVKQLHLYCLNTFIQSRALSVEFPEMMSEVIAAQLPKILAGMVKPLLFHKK
Field: CF PR/CF MR. Provide a value for each of the compounds that follow.
Answers are plain numbers.

>  <compound>
C=C[C@@H]1CC2=CC(=O)CC[C@@H]2[C@H]2CC[C@@]3(CC)[C@@H](CC[C@@]34C=CC(=O)O4)[C@@H]21 (stereo in doubt) [Example 10A]

>  <measured_number>
3.71

$$$$
>  <compound>
C[C@]12CC[C@H]3[C@@H](CCC4=CC(=O)CC[C@@H]43)[C@@H]1CC1(CC1)[C@@]21C=CC(=O)O1 (stereo in doubt)

>  <measured_number>
0.26

$$$$

Now for another entry.
-- ask Please provide the recorded CF PR/CF MR for `CC[C@]12CC[C@H]3[C@@H](CCC4=C(Cl)C(=O)CC[C@@H]43)[C@@H]1CC[C@@]21C=CC(=O)O1` , tested on progesterone receptor (Homo sapiens (Human)).
-- reply 0.60

====

molecular target: progesterone receptor (Homo sapiens (Human)); settings: CF of 1 = affinity of progesterone; CF >1 lower affinity
Field: Progesterone receptor (PR) Competition factor. Provide a value for each of the molecules that follow.
Give bare numbers.

Completed entries (count: 8):
>  <molecule>
CC[C@@H]1CC2=CC(=O)CC[C@@H]2[C@H]2CC[C@@]3(CC)[C@@H](CC[C@@]34C=CC(=O)O4)[C@H]12 (stereo in doubt) [Example 9A]

>  <tested_system>
progesterone receptor (Homo sapiens (Human))

>  <measured_number>
25.12

$$$$
>  <molecule>
CC[C@]12CC[C@H]3[C@@H](C=CC4=CC(=O)CC[C@@H]43)[C@@H]1CC[C@@]21C=CC(=O)O1 (stereo in doubt) [Example 7]

>  <tested_system>
progesterone receptor (Homo sapiens (Human))

>  <measured_number>
6.15

$$$$
>  <molecule>
CC[C@]12CC[C@H]3[C@@H](CCC4=C(Cl)C(=O)CC[C@@H]43)[C@@H]1CC[C@@]21C=CC(=O)O1 [Example 13]

>  <tested_system>
progesterone receptor (Homo sapiens (Human))

>  <measured_number>
28.06

$$$$
>  <molecule>
CC[C@@H]1CC2=CC(=O)CC[C@@H]2[C@H]2CC[C@@]3(C)[C@@H](CC[C@@]34C=CC(=O)O4)[C@H]12 (stereo in doubt) [Example 3A]

>  <tested_system>
progesterone receptor (Homo sapiens (Human))

>  <measured_number>
54.22

$$$$
>  <molecule>
C[C@]12CC[C@H]3[C@@H](CCC4=CC(=O)CC[C@@H]43)[C@@H]1CC1(CC1)[C@@]21C=CC(=O)O1 (stereo in doubt) [Example 5]

>  <tested_system>
progesterone receptor (Homo sapiens (Human))

>  <measured_number>
3.31

$$$$
>  <molecule>
C[C@]12CC[C@H]3[C@@H](CCC4=C(Cl)C(=O)CC[C@@H]43)[C@@H]1CC[C@@]21C=CC(=O)O1 [Example 14]

>  <tested_system>
progesterone receptor (Homo sapiens (Human))

>  <measured_number>
53.06

$$$$
>  <molecule>
CC[C@]12CC[C@H]3[C@@H]([C@H](C)CC4=CC(=O)CC[C@@H]43)[C@@H]1CC[C@@]21C=CC(=O)O1 (stereo in doubt) [Example 8A]

>  <tested_system>
progesterone receptor (Homo sapiens (Human))

>  <measured_number>
5.95

$$$$
>  <molecule>
C[C@]12CC[C@H]3[C@@H]([C@H](C4CC4)CC4=CC(=O)CC[C@@H]43)[C@@H]1CC[C@@]21C=CC(=O)O1 (stereo in doubt) [Example 12A]

>  <tested_system>
progesterone receptor (Homo sapiens (Human))

>  <measured_number>
109.04

$$$$

I have 3 molecules here; please give me Progesterone receptor (PR) Competition factor for each one.
1. C=C[C@@H]1CC2=CC(=O)CC[C@@H]2[C@H]2CC[C@@]3(CC)[C@@H](CC[C@@]34C=CC(=O)O4)[C@@H]21 (stereo in doubt) [Example 10A]
2. C=C[C@@H]1CC2=CC(=O)CC[C@@H]2[C@H]2CC[C@@]3(C)[C@@H](CC[C@@]34C=CC(=O)O4)[C@@H]21 (stereo in doubt) [Example 4A]
3. CC[C@]12CC[C@H]3[C@@H]([C@H](C4CC4)CC4=CC(=O)CC[C@@H]43)[C@@H]1CC[C@@]21C=CC(=O)O1 (stereo in doubt) [Example 11A]

-- reply
1: 18.90; 2: 27.47; 3: 21.03

I have 2 molecules here; please give me Progesterone receptor (PR) Competition factor for each one.
1. CC[C@]12CC[C@H]3[C@@H](CCC4=CC(=O)CC[C@@H]43)[C@@H]1CC[C@@]21C=CC(=O)O1 (stereo in doubt) [Example 6]
2. C[C@@H]1CC2=CC(=O)CC[C@@H]2[C@H]2CC[C@@]3(C)[C@@H](CC[C@@]34C=CC(=O)O4)[C@@H]21 (stereo in doubt) [Example 2A]

-- reply
1: 3.07; 2: 8.33
